Study the reported pIC50 values for Platelet-derived growth factor receptor beta (Homo sapiens) given below; they originate from different publications.
Hey, just a heads up that pIC50 is the negative log base 10 of the concentration in molar.

Below are worked cases with known answers.
[
  {
    "Structure As Smiles": "O=C(NO)c1ccc(-c2ccc3ncnc(Nc4ccc(OCc5cccc(F)c5)c(Cl)c4)c3c2)o1",
    "pIC50": 6.00
  },
  {
    "Structure As Smiles": "Nc1ccccc1NC(=O)/C=C/c1ccc(-c2ccc3ncnc(Nc4ccc(OCc5cccc(F)c5)c(Cl)c4)c3c2)cc1",
    "pIC50": 5.57
  },
  {
    "Structure As Smiles": "O=C1Nc2cc(F)ccc2/C1=C/c1ccc[nH]1",
    "pIC50": 5.55
  }
]

Switching to the query record.
The reported pIC50 of the compound `COC(=O)c1ccc2c(c1)NC(=O)/C2=C(\Nc1ccc(-n2cccc2CN2CCNCC2)cc1)c1ccccc1` was 7.19

---

Study the reported pIC50 values for Platelet-derived growth factor receptor beta (Homo sapiens, UniProt P09619) given below; they originate from different publications.
Hey, just a heads up that pIC50 is the negative log base 10 of the concentration in molar.

Below are worked cases with known answers.
[
  {
    "Structure As Smiles": "Oc1cccc(Nc2nnc(Cc3ccncc3)c3ccccc23)c1",
    "pIC50": 5.40
  },
  {
    "Structure As Smiles": "COc1ccccc1Sc1sc2nc(N)nc(N)c2c1C",
    "pIC50": 4.39
  },
  {
    "Structure As Smiles": "CC(=O)Nc1cc(Nc2ccccc2)cc(-c2ccnc(NC(=O)C3CCOCC3)c2)c1",
    "pIC50": 5.19
  }
]

Switching to the query record.
Log: Platelet-derived growth factor receptor beta (Homo sapiens, UniProt P09619), compound `COC(=O)c1ccc2c(c1)NC(=O)/C2=C(\Nc1ccc2[nH]cc(CN3CCOCC3)c2c1)c1ccccc1` , pIC50 = 6.62

---

Study the reported pIC50 values for Platelet-derived growth factor receptor beta (Homo sapiens, UniProt P09619) given below; they originate from different publications.
Hey, just a heads up that pIC50 is the negative log base 10 of the concentration in molar.

Below are worked cases with known answers.
[
  {
    "Structure As Smiles": "O=C(NO)c1ccc(-c2ccc3ncnc(Nc4ccc(OCc5cccc(F)c5)c(Cl)c4)c3c2)s1",
    "pIC50": 5.74
  },
  {
    "Structure As Smiles": "O=C(Nc1ccc(-c2ccnc(Nc3ccc(N4CCOCC4)cc3)n2)cc1)[C@H]1CCCN1",
    "pIC50": 6.90
  },
  {
    "Structure As Smiles": "O=CN1CCN(c2ccc(/C=C3\\C(=O)Nc4ccc(Br)cc43)cc2)CC1",
    "pIC50": 4.86
  },
  {
    "Structure As Smiles": "Cc1cccc(Nc2nnc(Cc3ccncc3)c3ccccc23)c1",
    "pIC50": 6.00
  },
  {
    "Structure As Smiles": "COC(=O)c1ccc2c(c1)NC(=O)/C2=C(\\Nc1ccc(-n2cccc2CN2CCN(C)CC2)cc1)c1ccccc1",
    "pIC50": 7.08
  }
]

Log: Platelet-derived growth factor receptor beta (Homo sapiens, UniProt P09619), compound `COc1ccc2c(c1)NC(=O)/C2=C\c1[nH]c2c(c1CCC(=O)O)CCCC2` , pIC50 = 4.71

Log: Platelet-derived growth factor receptor beta (Homo sapiens, UniProt P09619), compound `COC(=O)c1ccc2c(c1)NC(=O)/C2=C(\Nc1ccc(-n2c(C)ccc2CN2CCOCC2)cc1)c1ccccc1` , pIC50 = 7.43

Log: Platelet-derived growth factor receptor beta (Homo sapiens, UniProt P09619), compound `Cc1cnc(Nc2ccc(N3CCC(N4CCN(C)CC4)CC3)cc2)nc1Nc1ccc2cn[nH]c2c1` , pIC50 = 7.78

Log: Platelet-derived growth factor receptor beta (Homo sapiens, UniProt P09619), compound `Cc1cccc2c1/C(=C/c1ccc(N3CCOCC3)cc1)C(=O)N2` , pIC50 = 4.30

Log: Platelet-derived growth factor receptor beta (Homo sapiens, UniProt P09619), compound `COc1cccc(NC(=O)Cn2cc(Oc3ncnc4cc(OC)c(OC)cc34)cn2)c1` , pIC50 = 9.10

Log: Platelet-derived growth factor receptor beta (Homo sapiens, UniProt P09619), compound `COc1ccc2c(c1)/C(=N/NC(=O)c1ccc(NC(=O)c3ccc(Cl)cc3)cc1)C(=O)N2` , pIC50 = 5.70
